Tested on: SK-OV-3
Assay name: NCI tumour cell line growth inhibition, 48 h
Calls of active or inactive are those of the source. No stated cut-off is given here; in the data, active = GI50 up to about 1.1 µM and inactive = higher.
Property label: GI50

Answered examples (2):
Molecule	Target desc	GI50
N#CN1CC[C@@H]2CC3(CCC2C1)OCCO3 (some centres undefined)	SK-OV-3	> 100 µM (inactive)
O=C1Nc2cccc(C(F)(F)F)c2/C1=N/Nc1ccccc1[N+](=O)[O-]	SK-OV-3	30.2 µM (inactive)

Value of measured GI50 for the entry Cc1[nH]c2ccccc2c1C(=O)CC1(O)C(=O)Nc2c(Cl)cc(Cl)cc21 (centres undefined) : 72.3 µM (inactive)

Record summary for O=[N+]([O-])c1ccc2sc(/C=N/c3ccccn3)cc2c1 : reported GI50 = > 100 µM (inactive)

---

Tested on: A498
Assay name: NCI tumour cell line growth inhibition, 48 h
Active and inactive are the calls of the source. Rule as the data show it: active = GI50 up to about 1.1 µM and inactive = higher.
A correct response names exactly one class from active, inactive

Compound	Target desc	Category
COc1cc2nc(-c3cccs3)[nH]c(=O)c2cc1OC	A498	inactive

### Prompt Just curious, what result did NC1C2(CCCCCC2)NC(=O)C12CCCCCC2 (stereo unspecified) get here?
### Response inactive

### Prompt Recorded call for CCOc1ccc(N/C(=C(/C(Cl)=C(/Cl)N2CCCCC2)[N+](=O)[O-])n2nnc3ccccc32)cc1 ?
### Response inactive

### Prompt Could you kindly confirm the outcome this assay logged for C=CCC(C)C12CCNC(Cc3ccc(O)cc31)C2C (stereo unspecified) ?
### Response inactive

### Prompt Short answer needed: outcome of this test for CN(C)CCC1(C2=CCCC2)CC/C(=C\c2ccccc2Cl)C1=O (stereo unspecified) ?
### Response inactive

### Prompt Please let me know the test result on file for COc1ccc(/C=C/C(=O)N[C@@H]2C(=O)N3[C@@H]2SC(C)(C)[C@@H]3C(=O)O)cc1 .
### Response inactive

### Prompt Assay outcome for COc1ccc(/C=N/NC(=O)c2ccccc2Nc2ccccc2C(=O)N/N=C/c2ccc(OC)cc2)cc1 : what was it?
### Response inactive

### Prompt What classification did CN(C)CCCN1c2ccccc2CCc2ccc([N+](=O)[O-])cc21 end up with in this test?
### Response inactive

### Prompt Which outcome did this test record for the compound COC(=O)C1C(C(=O)OC)C2C(=O)C3C(C(=O)OC)C(C(=O)OC)C3C(=O)C12 (stereo unspecified) ?
### Response inactive

### Prompt Tell me the assay call for C/C(=N\Nc1nc2cc(C)ccc2s1)c1ccccn1 please.
### Response active

### Prompt Could you please tell me the result logged for O=C(NC1=C(Cl)C(=O)c2ccccc2C1=O)C(=O)c1c(O)c2ccccc2oc1=O in this assay?
### Response inactive

---

System: DLD-1
Assay name: NCI tumour cell line growth inhibition, 48 h
Activity calls are given as the source filed them. No stated cut-off is given here; in the data, active = GI50 up to about 1.1 µM and inactive = higher.
Property label: GI50

Reference set (2 entries):
Compound	Target desc	Property label	Reported result
Cc1c(N)nc(C(CC(N)=O)NCC(N)C(N)=O)nc1C(=O)NC(C(=O)NC(C)C(O)C(C)C(=O)NC(C(=O)NCCc1nc(-c2nc(C(=O)NCCCNCCCCN)cs2)cs1)C(C)O)C(OC1OC(CO)C(O)C(O)C1OC1OC(CO)C(O)C(OC(N)=O)C1O)c1c[nH]cn1 (stereo not drawn)	DLD-1	GI50	> 10 µM (inactive)
COc1ccc(NC(=O)/C(=C/c2ccccc2)C(C)=O)cc1	DLD-1	GI50	12.8 µM (inactive)

Kindly note the recorded GI50 for NC1C2(CCCCCC2)NC(=O)C12CCCCCC2 (stereo not drawn) , which is > 100 µM (inactive)
